Source: the RNAGym collection of RNA variant scans (doi:10.1073/pnas.2313332121)

B1: TPR 5TU (parent)
chain: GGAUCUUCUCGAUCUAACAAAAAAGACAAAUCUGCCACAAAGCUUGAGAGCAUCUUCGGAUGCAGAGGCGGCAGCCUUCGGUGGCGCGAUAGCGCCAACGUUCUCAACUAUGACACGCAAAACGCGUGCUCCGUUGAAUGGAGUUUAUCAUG

Variants of: B1
Experiment: polymerase ribozyme fitness, log enrichment relative to wild type (log ratio); higher = more active; in vitro selection for triplet polymerase activity
This sample holds only a part of the variants without activity.
Assay readout: polymerase ribozyme fitness (log ratio)

INSERT INTO results (variant_id, assay_readout, observed) VALUES
  ('U13G C38U C63U C76U A91G C93G C95U C149U', 'polymerase ribozyme fitness (log ratio)', '≤ -4.2'),
  ('G48A C76G C87A U90A U146A', 'polymerase ribozyme fitness (log ratio)', '≤ -4.2'),
  ('A41C U55C C85G C108U G126A', 'polymerase ribozyme fitness (log ratio)', '≤ -4.2'),
  ('U53A C75U G88C', 'polymerase ribozyme fitness (log ratio)', '≤ -4.2'),
  ('U33G G48C U53A C93U C149U', 'polymerase ribozyme fitness (log ratio)', '≤ -4.2'),
  ('A3C U13G A23U C87U A91U C96U', 'polymerase ribozyme fitness (log ratio)', '≤ -4.2'),
  ('A22C A23G G62A A91G A98U C114A U146A', 'polymerase ribozyme fitness (log ratio)', '≤ -4.2'),
  ('C51A G67A A73G C95A U101G G140U U151G', 'polymerase ribozyme fitness (log ratio)', '≤ -4.2'),
  ('A26U A49G C57A G88U G92A G100A A106U C125U', 'polymerase ribozyme fitness (log ratio)', '≤ -4.2'),
  ('G83A G141U G143A', 'polymerase ribozyme fitness (log ratio)', '≤ -4.2'),
  ('C93G C105A G136U', 'polymerase ribozyme fitness (log ratio)', '≤ -4.2'),
  ('C35A C79A G83A C99A', 'polymerase ribozyme fitness (log ratio)', '≤ -4.2'),
  ('G42A U78G C116A C125G', 'polymerase ribozyme fitness (log ratio)', '≤ -4.2'),
  ('A23C A29U G68C U82G G133U U134A A138U', 'polymerase ribozyme fitness (log ratio)', '≤ -4.2'),
  ('A12U A16U A17U C27U A47U G48A C76G G86U U145A G152U', 'polymerase ribozyme fitness (log ratio)', '≤ -4.2'),
  ('A60C', 'polymerase ribozyme fitness (log ratio)', -0.597),
  ('C8U A12G A28U G74A G81A C99U', 'polymerase ribozyme fitness (log ratio)', -4.18),
  ('C57U C95A G112U U151A', 'polymerase ribozyme fitness (log ratio)', -4.06),
  ('A23C U44C A64C G92C A97U', 'polymerase ribozyme fitness (log ratio)', '≤ -4.2'),
  ('C57A G100C', 'polymerase ribozyme fitness (log ratio)', '≤ -4.2'),
  ('U4G A21U C32G C38G C93G U146A', 'polymerase ribozyme fitness (log ratio)', '≤ -4.2'),
  ('C38U C125A', 'polymerase ribozyme fitness (log ratio)', -0.6),
  ('G86C U101G G124U G152A', 'polymerase ribozyme fitness (log ratio)', -4.15),
  ('A20U A52G C75U G88A C103G A119C', 'polymerase ribozyme fitness (log ratio)', '≤ -4.2'),
  ('A17C C18G G58A C69G C85U', 'polymerase ribozyme fitness (log ratio)', -2.39),
  ('G68C A89G A120G A147U U148G', 'polymerase ribozyme fitness (log ratio)', '≤ -4.2'),
  ('U9A G50A G94U', 'polymerase ribozyme fitness (log ratio)', '≤ -4.2');
